- Assay target: human STING (hSTING) HAQ variant in THP1-Dual HAQ Cells (Homo sapiens, UniProt Q86WV6, G230A/H232R/R293Q/R71H)
- Sequence (Q86WV6 whole entry R71H/G230A/H232R/R293Q): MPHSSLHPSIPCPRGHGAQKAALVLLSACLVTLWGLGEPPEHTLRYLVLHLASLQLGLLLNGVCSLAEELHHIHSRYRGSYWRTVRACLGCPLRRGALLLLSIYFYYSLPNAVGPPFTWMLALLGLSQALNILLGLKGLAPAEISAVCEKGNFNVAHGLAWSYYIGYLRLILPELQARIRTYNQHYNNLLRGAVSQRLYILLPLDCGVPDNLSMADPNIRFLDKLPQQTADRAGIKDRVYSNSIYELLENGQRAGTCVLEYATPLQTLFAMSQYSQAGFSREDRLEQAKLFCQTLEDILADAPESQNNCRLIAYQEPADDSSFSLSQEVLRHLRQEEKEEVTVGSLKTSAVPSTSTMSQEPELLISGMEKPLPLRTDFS
- Experimental protocol: STING cellular assay in THP1-Dual HAQ cells (ISG54 Lucia luciferase reporter, QUANTI-Luc)
Counter-ions that a name gives are not always drawn.
Reported property: EC50 (µM)
Response body: numeric value in µM, unit text excluded.

Use these answered entries as a reference point.
>>> value("CCn1nc(C)cc1C(=O)Nc1nc2cc(C(N)=O)cnc2n1C/C=C/Cn1c2nc(-c3cc(C)nn3CC)ncc2c2cc(C(N)=O)cc(OCCCC3CNC3)c21 [Example 5-AB]")
0.862
>>> value("CCn1nc(C)cc1C(=O)Nc1nc2cc(C(N)=O)cnc2n1C/C=C/Cn1c2nc(-c3cc(C)nn3CC)ncc2c2cc(C(N)=O)cc(OCCCC3CN(C(=O)OC(C)(C)C)C3)c21 [Example 5-AA]")
0.039
>>> value("CCn1nc(C)cc1C(=O)Nc1nc2cc(C(N)=O)cnc2n1C/C=C/Cn1c2nc(-c3cc(C)nn3CC)ncc2c2cc(C(N)=O)cc(OCCCN3CCN(C(=O)CON)CC3)c21 [Example 2-AC]")
0.118
>>> value("CCn1nc(C)cc1C(=O)Nc1nc2cc(C(N)=O)cnc2n1C/C=C/Cn1c2nc(-c3cc(C)nn3CC)ncc2c2cc(C(N)=O)cc(OCCCC3CCN(C(=O)OC(C)(C)C)CC3)c21 [Example 7-AA]")
0.028
>>> value("CCn1nc(C)cc1C(=O)Nc1nc2cc(C(N)=O)cnc2n1C/C=C/Cn1c2nc(-c3cc(C)nn3CC)ncc2c2cc(C(N)=O)cc(OCCC3CNC3)c21 [Example 4-AB]")
1.04
>>> value("CCn1nc(C)cc1C(=O)Nc1nc2cc(C(N)=O)cnc2n1C/C=C/Cn1c2nc(-c3cc(C)nn3CC)ncc2c2cc(C(N)=O)cc(OCCCNC)c21 [Example 1-AB]")
0.355
>>> value("CCn1nc(C)cc1C(=O)Nc1nc2cc(C(N)=O)cnc2n1C/C=C/Cn1c2nc(-c3cc(C)nn3CC)ncc2c2cc(C(N)=O)cc(OCCC3CCNCC3)c21 [Example 6-AB]")
0.674
>>> value("CCn1nc(C)cc1C(=O)Nc1nc2cc(C(N)=O)cnc2n1C/C=C/Cn1c2nc(-c3cc(C)nn3CC)ncc2c2cc(C(N)=O)cc(OCCCN(C)C(=O)OC(C)(C)C)c21 [Example 1-AA]")
0.0034
>>> value("CCn1nc(C)cc1C(=O)Nc1nc2cc(C(N)=O)cnc2n1C/C=C/Cn1c2nc(-c3cc(C)nn3CC)ncc2c2cc(C(N)=O)cc(OCCCCN(C)C(=O)OC(C)(C)C)c21 [Example 3-AA]")
0.0041
>>> value("CCn1nc(C)cc1C(=O)Nc1nc2cc(C(N)=O)cnc2n1C/C=C/Cn1c2nc(-c3cc(C)nn3CC)ncc2c2cc(C(N)=O)cc(OCCC3CN(C(=O)OC(C)(C)C)C3)c21 [Example 4-AA]")
0.0048

We next turn to a different molecule, shown below.
In one line, give reported EC50 of the entry CCn1nc(C)cc1C(=O)Nc1nc2cc(C(N)=O)cnc2n1C/C=C/Cn1c2nc(-c3cc(C)nn3CC)ncc2c2cc(C(N)=O)cc(OCCCCNC)c21 [Example 3-AB-HCl] .
0.64

---

- Assay target: human STING (hSTING) HAQ variant in THP1-Dual HAQ Cells (Homo sapiens, UniProt Q86WV6, G230A/H232R/R293Q/R71H)
- Experimental protocol: STING cellular assay in THP1-Dual HAQ cells (ISG54 Lucia luciferase reporter, QUANTI-Luc)
Structures can show the parent of a compound that is named as a salt.
# reported log10 of EC50; entries follow
Units before log transform: nM; reported quantity: EC50; transform: log10.

>>> value("CCn1nc(C)cc1C(=O)Nc1nc2cc(C(N)=O)cnc2n1C/C=C/Cn1c2nc(-c3cc(C)nn3CC)ncc2c2cc(C(N)=O)cc(OCCCN(C)C(=O)CON)c21")
1.53

In one line, give reported log10 of EC50 of the entry CCn1nc(C)cc1C(=O)Nc1nc2cc(C(N)=O)cnc2n1C/C=C/Cn1c2nc(-c3cc(C)nn3CC)ncc2c2cc(C(N)=O)cc(OCCCN3CCNCC3)c21 [Example 2-AB-HCl] .
2.75

In one line, give reported log10 of EC50 of the entry CCn1nc(C)cc1C(=O)Nc1nc2cc(C(N)=O)cnc2n1C/C=C/Cn1c2nc(-c3cc(C)nn3CC)ncc2c2cc(C(N)=O)cc(OCCC3CCN(C(=O)OC(C)(C)C)CC3)c21 .
1.69

In one line, give reported log10 of EC50 of the entry CCn1nc(C)cc1C(=O)Nc1nc2cc(C(N)=O)cnc2n1C/C=C/Cn1c2nc(-c3cc(C)nn3CC)ncc2c2cc(C(N)=O)cc(OCCCC3CCNCC3)c21 .
2.48

In one line, give reported log10 of EC50 of the entry CCn1nc(C)cc1C(=O)Nc1nc2cc(C(N)=O)cnc2n1C/C=C/Cn1c2nc(-c3cc(C)nn3CC)ncc2c2cc(C(N)=O)cc(OCCCN3CCN(C(=O)OC(C)(C)C)CC3)c21 .
0.38

# credit: patent US12637480B2
